Tested on: HCoV-OC43
Experiment: OC43 virion RNA, Branched DNA assay, infected HCT8 cells
Type: cell-based, human coronavirus OC43
Conditions: 10 nM siRNA along with 10 nM of siRNA targeting GRP78, HCT8 cells
Measured Metric: OC43 vRNA reduction siRNA and siGRP78 (%)

1) 41 (AUGGGAUUUGGCCUUUUUGAUUUAUCAAAAAGGCCAAAUCCCAUUU; siRNA; Self-complementary hairpin strand, chemistry not given here, further chemistry not given here; listed as Homo sapiens) [compound 41]
81
2) 25 (GAUCAAUGCCCUCAUUAAAGCTTUUUAAUGAGGGCAUUGAUCUUTT; siRNA; Self-complementary hairpin strand, chemistry not given here, further chemistry not given here; listed as Homo sapiens) [compound 25]
88
3) 52 (CAAGGUUAUCAGUGUGCUGTTCAGCACACUGAUAACCUUGTT; siRNA; Self-complementary hairpin strand, chemistry not given here, further chemistry not given here; listed as Homo sapiens) [compound 52]
91
4) 44 (UGAGCUGAAUGGAAAAAACAUUUAUGUUUUUUCCAUUCAGCUCAUU; siRNA; Self-complementary hairpin strand, chemistry not given here, further chemistry not given here; listed as Homo sapiens) [compound 44]
92

* * *

System: RPLP1 mRNA
Assay: Target mRNA reduction by RT-qPCR in HepG2.2.15 cells
Format: cell-based, human
Conditions: 10 nM siRNA
Measured Metric: Target RNA reduction in HepG2.2.15 cells (%)

1. 27 (GGUCUUUUUGACUAAACCUCUTTAGGUUUAGUCAAAAAGACCAATT; siRNA; Self-complementary hairpin strand, chemistry not given here, further chemistry not given here; listed as Homo sapiens) [compound 27]
72
2. 26 (GAAGCAAAGAAAGAAGAAUCCTTAUUCUUCUUUCUUUGCUUCCATT; siRNA; Self-complementary hairpin strand, chemistry not given here, further chemistry not given here; listed as Homo sapiens) [compound 26]
86

* * *

System: HBeAg
Conditions: 10 nM siRNA transfected into cells
Measured Metric: HBeAg reduction HepG2.2.15 cells (%)

1) 26 (GAAGCAAAGAAAGAAGAAUCCTTAUUCUUCUUUCUUUGCUUCCATT; siRNA; Self-complementary hairpin strand, chemistry not given here, further chemistry not given here; listed as Homo sapiens) [compound 26]
64
2) 39 (AGAGGAGAAGAAAGAUGAGAAUUUUCUCAUCUUUCUUCUCCUCUUU; siRNA; Self-complementary hairpin strand, chemistry not given here, further chemistry not given here; listed as Homo sapiens) [compound 39]
59
3) 52 (CAAGGUUAUCAGUGUGCUGTTCAGCACACUGAUAACCUUGTT; siRNA; Self-complementary hairpin strand, chemistry not given here, further chemistry not given here; listed as Homo sapiens) [compound 52]
54
4) 35 (GGGAUUUGGCCUUUUUGAUUATTAUCAAAAAGGCCAAAUCCCAUTT; siRNA; Self-complementary hairpin strand, chemistry not given here, further chemistry not given here; listed as Homo sapiens) [compound 35]
69

* * *

Each record here notes measured Target RNA reduction in HepG2.2.15 cells.
Test system: RPLP2 mRNA
Test: Target mRNA reduction by RT-qPCR in HepG2.2.15 cells
Assay type: cell-based, human
Conditions: 10 nM siRNA
Measured Metric: Target RNA reduction in HepG2.2.15 cells (%)

1) 48 (GCGCCAAGGACAUCAAGAATTUUCUUGAUGUCCUUGGCGCAA; siRNA; Self-complementary hairpin strand, chemistry not given here, further chemistry not given here; listed as Homo sapiens) [compound 48]
97
2) 44 (UGAGCUGAAUGGAAAAAACAUUUAUGUUUUUUCCAUUCAGCUCAUU; siRNA; Self-complementary hairpin strand, chemistry not given here, further chemistry not given here; listed as Homo sapiens) [compound 44]
99
3) 52 (CAAGGUUAUCAGUGUGCUGTTCAGCACACUGAUAACCUUGTT; siRNA; Self-complementary hairpin strand, chemistry not given here, further chemistry not given here; listed as Homo sapiens) [compound 52]
98
4) 42 (CCCAGCGCCAAGGACAUCAAGUUCUUGAUGUCCUUGGCGCUGGGUU; siRNA; Self-complementary hairpin strand, chemistry not given here, further chemistry not given here; listed as Homo sapiens) [compound 42]
95
5) 41 (AUGGGAUUUGGCCUUUUUGAUUUAUCAAAAAGGCCAAAUCCCAUUU; siRNA; Self-complementary hairpin strand, chemistry not given here, further chemistry not given here; listed as Homo sapiens) [compound 41]
97
6) 47 (UGGCCUUUUUGAUUAAAUUTTAAUUUAAUCAAAAAGGCCAAA; siRNA; Self-complementary hairpin strand, chemistry not given here, further chemistry not given here; listed as Homo sapiens) [compound 47]
97
7) 46 (GAAAGAUGAGAAGAAGGAGGAUUUCCUCCUUCUUCUCAUCUUUCUU; siRNA; Self-complementary hairpin strand, chemistry not given here, further chemistry not given here; listed as Homo sapiens) [compound 46]
98
8) 36 (CCUUUUUGAUUAAAUUCCUGCTTAGGAAUUUAAUCAAAAAGGCCTT; siRNA; Self-complementary hairpin strand, chemistry not given here, further chemistry not given here; listed as Homo sapiens) [compound 36]
94
